Inhibition: recorded values
# System: Cryptococcus neoformans
# assay_context: Concentration 20 uM; ASSAY_TEST Inhibition of Fungal Growth; detection method Resazurin; Absorption (OD600-OD570); plate type 384well; NBS; CORNING #3640
# Description: Antifungal activity against Cryptococcus neoformans H99 ATCC 208821 (CO-ADD:FG_002); MIC in YNB media using NBS plates, by Resazurin OD(600-570)
Entries with a potency or affinity are not part of this list.
Your answer should be a plain number; it is taken to be in %.

Some compounds with recorded Inhibition:
compound	Inhibition, %
Cc1ccc(NC(=O)N2CCN(C)CC2)cc1NC(=O)N1CCN(C)CC1	29.46
CCN(CC)C(=O)Cn1ccc(NC(C)=O)nc1=O	-8.8
CC1(C)CC(Nc2ccc(Nc3ccccc3)cc2)CC(C)(C)N1	-0.13
CS(=O)(=O)O.Cc1cc2c(cc1[N+](=O)[O-])NC(CNC(C)C)CC2 (configuration not stated)	-5.85
CCOC(=O)Nc1c2ccccc2nc2ccccc12	-13.98

Measured Inhibition (Cryptococcus neoformans), entry CCOC(=O)c1cc(OCC)c2c(ccc3ccccc32)n1 : -11.11

For CC1CC(C)(C)C2=NCCN21 (configuration not stated) on Cryptococcus neoformans, measured Inhibition was -11

Bench note, Cryptococcus neoformans: CC(C)NC(=O)c1ccc(C(C)C)cc1 , Inhibition reads -8.3

The compound COc1ccccc1/C=C1\Cc2ccccc2C1=O , tested on Cryptococcus neoformans, showed Inhibition of -2

For the compound O=C(Nc1ccc(C(=O)O)c(O)c1)c1ccccc1 [BENZOYLPAS] , the measured Inhibition on Cryptococcus neoformans was -5.98

Measured on Cryptococcus neoformans, CCOC(=O)c1c(C)nc(C)c(C(=O)OCC)c1-c1ccc(OC)cc1 has a documented Inhibition of 19.28

Cryptococcus neoformans Inhibition of COc1cc2c(cc1OC)C(C1(O)CCCCC1)NCC2 (configuration not stated) is -12.78
